compounds and their reported CC50
# ASSAY_DETAILS: Functional CPE-based assay to measure dose dependent changes in cell viability from drug treatment in Vero E6 miRFP670 cells (cotreated with P-gp inhibitor, CP100356). Cells are treated with antiviral candidates that have been serially diluted. Cytotoxicity is reported via analysis of MTS assays in uninfected cells. The assay has been performed by KU Leuven.
# Assay type: toxicity, Vero C1008
# EXPERIMENTAL_CONTEXT: chlorocebus sabaeus, Vero E6 miRFP670 cells, with CP100356 (P-gp inhibitor, concentration not stated); p-gp concentration 500 nM
READOUT: CC50 (µM)

Cc1ccc(-c2nc3c(C(=O)Nc4ccc5c(c4)CNC5)cc(F)cc3[nH]2)cc1    1.42
COc1cc(Br)cc(C(=O)Nc2ccc3c(c2)CNC3)c1    47.5
O=C(Nc1ccc2c(c1)CNC2)c1cccc2nc(O)ccc12    36.5
O=C(NCCCn1ccnc1)[C@H](Nc1ccc2c(c1)CNC2)c1cc(Cl)cc(C2CC2)c1    11.5
O=C(Nc1ccc2c(c1)CNC2)c1cc(Cl)cc2cc[nH]c12    5.91
NCCc1ccc([C@H]2C[C@@H]2c2cc(Cl)cc(NC(=O)OCc3ccccc3)c2)cc1    5.78
C=CC[C@H]1NCc2cc(NC(=O)c3cc(Cl)cc4[nH]ncc34)ccc21    11.8
O=C(Nc1ccc2c(c1)CNC2)c1cccc2cn[nH]c12    47.8
